target: Gal(b1-3)GlcNAc(a1-6)Gal(b1-4)GlcNAc; assay: glycan array binding signal (z-score within array); higher = stronger binding; details: glycan notation: IUPAC condensed, linker removed
The full list was thinned out, with the strongest signals kept by preference.
Documented glycan array binding signal (z-score) across a set of binders

Completed entries (count: 5):
binder	glycan array binding signal (z-score)
FimD (Bordetella pertussis) (protein) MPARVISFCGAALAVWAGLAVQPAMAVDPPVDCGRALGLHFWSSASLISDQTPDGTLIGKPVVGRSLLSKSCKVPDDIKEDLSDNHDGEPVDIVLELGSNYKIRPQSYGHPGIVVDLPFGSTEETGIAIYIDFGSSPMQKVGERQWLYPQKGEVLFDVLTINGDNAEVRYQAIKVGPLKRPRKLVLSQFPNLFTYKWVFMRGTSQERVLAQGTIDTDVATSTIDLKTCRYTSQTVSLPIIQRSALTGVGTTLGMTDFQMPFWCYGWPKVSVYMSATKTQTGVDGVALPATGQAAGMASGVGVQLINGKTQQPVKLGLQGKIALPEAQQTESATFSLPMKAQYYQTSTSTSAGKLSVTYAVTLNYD	-0.163
Epa3to1 (Candida glabrata) (protein) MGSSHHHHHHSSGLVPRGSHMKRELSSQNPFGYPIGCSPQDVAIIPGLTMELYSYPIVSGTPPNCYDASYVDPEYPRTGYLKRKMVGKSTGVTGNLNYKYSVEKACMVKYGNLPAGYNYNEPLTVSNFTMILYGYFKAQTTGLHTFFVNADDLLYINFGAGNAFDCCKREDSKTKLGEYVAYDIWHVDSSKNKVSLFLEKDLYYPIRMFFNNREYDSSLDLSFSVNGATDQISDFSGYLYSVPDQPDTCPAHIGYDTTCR	0.409
Epa22 (Candida glabrata) (protein) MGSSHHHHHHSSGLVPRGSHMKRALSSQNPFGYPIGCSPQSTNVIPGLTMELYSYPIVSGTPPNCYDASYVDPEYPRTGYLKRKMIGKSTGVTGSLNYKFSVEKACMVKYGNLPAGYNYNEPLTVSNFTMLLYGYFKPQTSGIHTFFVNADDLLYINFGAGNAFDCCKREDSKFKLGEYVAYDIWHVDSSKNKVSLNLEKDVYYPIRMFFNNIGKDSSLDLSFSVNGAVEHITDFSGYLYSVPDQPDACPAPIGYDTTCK	0.491
LecB LY19 (Pseudomonas aeruginosa) (protein) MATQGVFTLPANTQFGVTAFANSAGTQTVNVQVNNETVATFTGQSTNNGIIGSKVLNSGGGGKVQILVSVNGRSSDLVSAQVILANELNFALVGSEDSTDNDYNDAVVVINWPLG	-0.55
BC2LB (Burholderia cenocepacia), B4EH85_BURCJ (protein) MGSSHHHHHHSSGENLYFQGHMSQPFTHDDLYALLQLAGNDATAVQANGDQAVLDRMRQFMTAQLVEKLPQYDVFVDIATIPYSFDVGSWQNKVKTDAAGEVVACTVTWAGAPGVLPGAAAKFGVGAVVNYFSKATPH	-0.227

Then this binder:
Could you tell me which glycan array binding signal (z-score) is on file for Mg3lysM (Mycosphaerella graminicola) (protein) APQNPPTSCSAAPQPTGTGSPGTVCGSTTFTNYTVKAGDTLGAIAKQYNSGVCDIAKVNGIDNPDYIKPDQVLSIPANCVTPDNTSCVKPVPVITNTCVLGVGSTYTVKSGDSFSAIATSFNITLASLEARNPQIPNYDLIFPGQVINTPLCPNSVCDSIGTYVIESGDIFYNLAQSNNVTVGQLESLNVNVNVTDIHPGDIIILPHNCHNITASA ? -0.12

Where do these numbers come from? They come from the supplement of paper PMC8728848.
